Give solubility at 2 h for every item shown.
# assay-overview: Solubility in water, 1st fluid and 2nd fluid of the Japanese pharmacopeia disintegration test (shaking, filtration, HPLC)
# Format: physicochemical
# assay-setup: pH 1.2, simulated gastric fluid, thermodynamic from solid; 1st fluid (model of human gastric juice, pH about 1.2); after 2 hours; crystal form; read-out: Solubility (mg/mL) 1st fluid
Numbers only here, please. The scale is mg/mL.

Enquiry: Quote solubility at 2 h reported for `CS(=O)(=O)Nc1cccc([C@@H](O)CNCCOc2ccc3c(c2)[nH]c2ccccc23)c1.Cl` please.
Return: 0.002

Enquiry: Quote solubility at 2 h reported for `CS(=O)(=O)Nc1cc([C@@H](O)CNCCOc2ccc3c(c2)[nH]c2ccccc23)ccc1O.O=C(O)C(O)C(O)C(=O)O` please.
Return: 0.003

* * *

# assay-overview: Solubility in water, 1st fluid and 2nd fluid of the Japanese pharmacopeia disintegration test (shaking, filtration, HPLC)
# Format: physicochemical
# assay-setup: pH 6.8, fassgf or other biorelevant, thermodynamic from solid; 2nd fluid (model of human intestinal juice, pH about 6.8); after 2 hours; crystal form; read-out: Solubility (mg/mL) 2nd fluid
measured-endpoint: solubility at 2 h (mg/mL)
Numbers only here, please. The scale is mg/mL.

Enquiry: Quote solubility at 2 h reported for `CS(=O)(=O)Nc1cc([C@@H](O)CNCCOc2ccc3c(c2)[nH]c2ccccc23)ccc1O.O=C(O)C(O)C(O)C(=O)O` please.
Return: 0.003

Enquiry: Quote solubility at 2 h reported for `CS(=O)(=O)Nc1cccc([C@@H](O)CNCCOc2ccc3c(c2)[nH]c2ccccc23)c1.Cl` please.
Return: 0.005

* * *

# assay-overview: Solubility in water, 1st fluid and 2nd fluid of the Japanese pharmacopeia disintegration test (shaking, filtration, HPLC)
# Format: physicochemical
# assay-setup: thermodynamic from solid; water; solubility after 2 hours; compound in crystal form, 20 mg in 40 mL; read-out: Solubility (mg/mL) Water
measured-endpoint: solubility at 2 h (mg/mL)
Numbers only here, please. The scale is mg/mL.

Enquiry: Quote solubility at 2 h reported for CS(=O)(=O)Nc1cccc([C@@H](O)CNCCOc2ccc3c(c2)[nH]c2ccccc23)c1.Cl [Compound A] please.
Return: 0.123

Enquiry: Quote solubility at 2 h reported for CS(=O)(=O)Nc1cc([C@@H](O)CNCCOc2ccc3c(c2)[nH]c2ccccc23)ccc1O.O=C(O)C(O)C(O)C(=O)O [Compound B] please.
Return: 1.34

* * *

Give solubility at 2 h for every item shown.
# assay-overview: Solubility in water, 1st fluid and 2nd fluid of the Japanese pharmacopeia disintegration test (shaking, filtration, HPLC)
# Type: physicochemical
# assay-setup: pH 1.2, simulated gastric fluid, thermodynamic from solid
Numbers only here, please. The scale is µg/mL.

Enquiry: Quote solubility at 2 h reported for `CS(=O)(=O)Nc1cc([C@@H](O)CNCCOc2ccc3c(c2)[nH]c2ccccc23)ccc1Br.Cl` please.
Return: 35

Enquiry: Quote solubility at 2 h reported for `CS(=O)(=O)Nc1cc([C@@H](O)CNCCOc2ccc3c(c2)[nH]c2ccccc23)ccc1Cl.Cl` please.
Return: 8

* * *

# assay-overview: Solubility in water, 1st fluid and 2nd fluid of the Japanese pharmacopeia disintegration test (shaking, filtration, HPLC)
# Assay type: physicochemical
# assay-setup: water, thermodynamic from solid
Give solubility at 2 h for every item shown.
Numbers only here, please. The scale is µg/mL.

Enquiry: Quote solubility at 2 h reported for CS(=O)(=O)Nc1cc([C@@H](O)CNCCOc2ccc3c(c2)[nH]c2ccccc23)ccc1Cl.Cl [Compound C] please.
Return: 471

Enquiry: Quote solubility at 2 h reported for CS(=O)(=O)Nc1cc([C@@H](O)CNCCOc2ccc3c(c2)[nH]c2ccccc23)ccc1Br.Cl [Compound D] please.
Return: 701

* * *

Give solubility at 2 h for every item shown.
# assay-overview: Solubility in water, 1st fluid and 2nd fluid of the Japanese pharmacopeia disintegration test (shaking, filtration, HPLC)
# Assay type: physicochemical
# assay-setup: pH 6.8, fassgf or other biorelevant, thermodynamic from solid
I'd appreciate it if you included the unit after the number.

Enquiry: Quote solubility at 2 h reported for `CS(=O)(=O)Nc1cc([C@@H](O)CNCCOc2ccc3c(c2)[nH]c2ccccc23)ccc1Cl.Cl` please.
Return: 14 µg/mL

Enquiry: Quote solubility at 2 h reported for `CS(=O)(=O)Nc1cc([C@@H](O)CNCCOc2ccc3c(c2)[nH]c2ccccc23)ccc1Br.Cl` please.
Return: 12 µg/mL

This collection of values is drawn from patent EP1219604A1.
